Every entry's value here was drawn from the RNAGym collection of RNA variant scans (doi:10.7554/elife.90254).

B1: OR4K15 (parent)
chain: GUUAACGGUCAUAGGCCAUGGAAACUAGGAGCACCAUUUCGCUGCCAGUGAAGAAAUGAACAAAGAAAAUCUGGGCCAGGCAGGCAUCAAAAGAAAUAGUCUUGCGCUCAACCAGAAAGUCUGUAAUCAUUUUAAGGGUA

# Variants of: B1
# assay comment: self-cleavage, relative activity (ratio to wild type); higher = more cleavage; in vitro, sequencing; the parent is a self-cleaving ribozyme
# cutoff 0.6 applies to self-cleavage; >= gives Yes, < gives No

Past entries and their recorded results:
mutation_descriptor="C10U A56G" category_label=Yes
mutation_descriptor="A129C U130C" category_label=Yes
mutation_descriptor="C32G A54U" category_label=Yes
mutation_descriptor="A86G A116G" category_label=Yes

Qu. API: above_or_equal(metric=self-cleavage, cutoff=0.6) for item A36G G119C
Ans. Yes

Qu. Entry to check: U70A U72A
Ans. No

Qu. Entry to check: U97G U132C
Ans. Yes

Qu. Entry to check: A5C A111G
Ans. No

Qu. Entry to check: C6U A11U
Ans. Yes

Qu. Entry to check: U9A A140U
Ans. Yes

Qu. Entry to check: A110G U124A
Ans. No
